- Test system: P-gp (MDR1)
- ASSAY INFO: MDCKII-MDR1 permeability, efflux ratio
- Assay type: in vitro ADME
- CONDITION LABEL: dog, MDCK-MDR1, pH 7.4, MDCKII-MDR1, 3 μM, read-out: ER MDR1
- Protocol: The blood brain barrier (BBB) separates circulating blood from the extracellular fluid of the central nervous system (CNS). The passive membrane permeability (Papp) and the P-gp (P-glycoprotein) substrate efflux potential were determined using the MDCKII-MDR1 cell line as an in vitro model of the effective permeability of a compound through the BBB. […] Following incubation of samples from donor and receiver, wells were removed and measured by LC-MS/MS. […]
Measured efflux ratio at 90 min, 3 μM, listed per entry.
API note: the answer field is a bare number with no unit suffix.

Previously resolved entries follow.
COMPOUND: CN1C(=O)[C@@H](NC(=O)c2nnc(Cc3ccccc3)o2)[C@H]2C[C@H]2c2nccnc21 [Example 177A]
TARGET ENTITY: P-gp (MDR1)
OBSERVED: 1.4
//
COMPOUND: CN1C(=O)[C@@H](NC(=O)c2nnc(Cc3ccccc3)[nH]2)[C@H]2C[C@H]2c2nccnc21 [Example 119B]
TARGET ENTITY: P-gp (MDR1)
OBSERVED: 18
//
COMPOUND: CN1C(=O)[C@@H](NC(=O)c2nnc(Cc3ccccc3)[nH]2)[C@H]2C[C@H]2c2ccccc21 [Example 46A]
TARGET ENTITY: P-gp (MDR1)
OBSERVED: 16

# next compound below
Prompt line: Record request: efflux ratio at 90 min, 3 μM value, item [2H]C([2H])([2H])N1C(=O)[C@@H](NC(=O)c2nn(Cc3ccccc3)cc2F)[C@H]2C[C@H]2c2cc(S(C)(=O)=O)ccc21 [Example 183B]
Response line: 36

----------
- System: FADD-deficient Jurkat cells
- ASSAY INFO: Cellular necroptosis assay (human TNFα-induced necrosis, CellTiter-Glo)
- Type: cell-based
- CONDITION LABEL: Homo sapiens, Jurkat, 48 h, read-out: Cell IC50, TNFα 10 ng/mL, 48 h
pIC50: −log10 of the molar value.
METRIC: pIC50

Prompt line: For the record O=C(N[C@H]1CCc2ccccc2-n2ccnc21)c1nnc(Cc2ccccc2)[nH]1 [Example 52] , what value of pIC50 is listed for FADD-deficient Jurkat cells?
Response line: 6.00 to 10.00

----------
Measured IC50, listed per entry.
- TARGET ENTITY: GST-hRIPK1 (8-327) (Homo sapiens (Human), UniProt Q13546)
- Sequence (Q13546 8-327): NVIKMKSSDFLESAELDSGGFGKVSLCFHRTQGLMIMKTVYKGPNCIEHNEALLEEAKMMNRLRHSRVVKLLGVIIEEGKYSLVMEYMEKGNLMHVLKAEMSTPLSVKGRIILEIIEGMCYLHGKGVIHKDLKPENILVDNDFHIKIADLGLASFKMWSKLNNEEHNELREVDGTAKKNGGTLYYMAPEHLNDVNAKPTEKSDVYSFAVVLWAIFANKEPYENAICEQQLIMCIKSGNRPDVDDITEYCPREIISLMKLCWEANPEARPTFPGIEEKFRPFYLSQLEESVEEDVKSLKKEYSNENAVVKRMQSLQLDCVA
- ASSAY INFO: Fluorescent Polarization Binding (FP Binding) assay

Previously resolved entries follow.
MOLECULE: CN1C(=O)[C@@H](NC(=O)c2cn(Cc3ccccc3)nn2)COc2cccnc21
IC50: 0.0001 to 1 µM

MOLECULE: CN1C(=O)[C@H](NC(=O)c2nnc(Cc3ccccc3)o2)[C@@H]2C[C@@H]2c2nccnc21 [Example 177B]
IC50: > 3 µM

MOLECULE: CN1C(=O)[C@H](NC(=O)c2nnc(C3(c4ccccc4)CC3)o2)CCc2cccnc21 [Example 145B]
IC50: > 3 µM

MOLECULE: O=C(N[C@@H]1COc2cccnc2-n2ccnc21)c1nnc(Cc2ccccc2)[nH]1 [Example 141A]
IC50: > 3 µM

MOLECULE: C[C@H]1Oc2cccnc2N(C)C(=O)[C@H]1NC(=O)c1cc(Cc2ccccc2)no1
IC50: 0.0001 to 1 µM

MOLECULE: CN1C(=O)[C@@H](NC(=O)c2nnc(Cc3ccccc3)o2)[C@H]2C[C@H]2c2cccnc21 [Example 157B]
IC50: 0.0001 to 1 µM

Prompt line: Record request: IC50 value, item O=C(N[C@@H]1CC2(CC2)c2cc(F)cc(F)c2NC1=O)c1nnc(Cc2ccccc2)[nH]1 [Example 103A]
Response line: > 3 µM

Prompt line: Record request: IC50 value, item CN1C(=O)[C@@H](NC(=O)c2nnc(C3(c4ccccc4)CC3)[nH]2)COc2cnccc21
Response line: 0.0001 to 1 µM
